TESTED TARGET: hERG (Homo sapiens)
ASSAY OVERVIEW: cell-based
CONDITION SET: (-LOG10(IC50), µM)
Structures can show the parent of a compound that is named as a salt.
Rule: IC50 below 9 µM gives criterion met, anything at or above gives criterion not met.

Consider the worked cases shown below.
> print(dat)
                                   compound  assigned.category
1    Clc1ccccc1C(c1ccccc1)(c1ccccc1)n1ccnc1  criterion not met
2                 CCCCCCCCCCCCn1cc[n+](C)c1      criterion met
3  c1ccc(CN(CC2=NCCN2)c2ccccc2)cc1 [Antazoline hydrochloride]  criterion not met
4  CCCCC(CC)CN1CN(CC(CC)CCCC)CC(C)(N)C1 (stereo not shown)      criterion met

# check: IC50 < 9 µM for CCc1ccc(C(c2ccc(CC)cc2)C(Cl)Cl)cc1 criterion not met

# check: IC50 < 9 µM for CCCCCCCCCCCCOCCOCCOCCOCCOCCOCCOCCOCCOCCO criterion not met

* * *

TESTED TARGET: hERG (Homo sapiens)
ASSAY OVERVIEW: cell-based
CONDITION SET: (-LOG10(IC50), µM)
IC50: recorded values
Just the number in µM, nothing appended.

> print(dat)
                                   compound        tested.target  property.measured  measured.result
1  COc1ccc(S(=O)(=O)N2C(=O)[C@@](c3ccccc3OC)(N3C[C@H](O)C[C@H]3C(=O)N(C)C)c3cc(Cl)ccc32)c(OC)c1  hERG (Homo sapiens)               IC50             54.9

Give the reported IC50 for CC(C)Oc1cc(-n2nc(C(C)(C)C)oc2=O)c(Cl)cc1Cl (system: hERG (Homo sapiens)). 44.7

Give the reported IC50 for CCOP(=S)(OCC)OC(Cl)C(Cl)(Cl)Cl (stereo not shown) (system: hERG (Homo sapiens)). 25.5

Give the reported IC50 for CCC(=O)C(CCN(C)C)(c1ccccc1)c1ccccc1 (system: hERG (Homo sapiens)). 15.1

* * *

TESTED TARGET: UniProt:Q12809
ASSAY OVERVIEW: cell-based
CONDITION SET: (-LOG10(IC50), µM)
Counter-ions that a name gives are not always drawn.
log10 IC50: recorded values
Give log10 of IC50, with IC50 taken in µM.

// worked examples, log10 IC50 included
> print(dat)
                                   compound  measured.result
1  CCN(CC)c1nc(C)cc(OP(=S)(OC)OC)n1 [Pirimiphos-methyl]             1.71
2      CCOC(=O)C1=NOC(c2ccccc2)(c2ccccc2)C1             1.56
3  NNc1nc(-c2ccc([N+](=O)[O-])cc2)cs1 [2-Hydrazino-4-(4-nitrophenyl)thiazole]             1.37
4  O=C1C=CC(=O)N1c1ccc(Cc2ccc(N3C(=O)C=CC3=O)cc2)cc1 [Bismaleimide]             1.64
5  c1ccc(C(O[C@H]2CCCN(CCc3ccc4c(c3)OCO4)C2)c2ccccc2)cc1 [Zamifenacin fumarate]            -0.27
6  Cc1nc(-c2ccc3c(c2)CCN(CCC2CCC(NC(=O)/C=C/c4ccc(F)cc4)CC2)CC3)no1 (stereo not drawn) [SB413217A]             0.01

State the recorded log10 IC50 for this entry: CCN(CC)CCOc1ccc(Cc2ccccc2)cc1 [Tesmilifene] 0.95

State the recorded log10 IC50 for this entry: c1ccc(Nc2cccc3ccccc23)cc1 [N-Phenyl-1-naphthylamine] 1.52

State the recorded log10 IC50 for this entry: CC(C)(C)C(=O)C=Cc1ccc(Cl)cc1 1.64

* * *

TESTED TARGET: UniProtKB Q12809
ASSAY OVERVIEW: cell-based
CONDITION SET: (-LOG10(IC50), µM)
Counter-ions that a name gives are not always drawn.
PROPERTY MEASURED: IC50 (µM)
Just the number in µM, nothing appended.

// worked examples, IC50 included
> print(dat)
                                   molecule  measured.result
1  CC(=O)C1(C)CC2=C(CCCC2(C)C)CC1C (stereo not shown) [Isocyclemone E]               40
2  Clc1ccccc1-c1ccccc1Cl [2,2'-Dichlorobiphenyl]             17.6
3  CCCCCC(=O)O[C@]1(C(C)=O)CC[C@H]2[C@@H]3CCC4=CC(=O)CC[C@]4(C)[C@H]3CC[C@@]21C             22.6
4  O[C@@H](CNC[C@H](O)[C@H]1CCc2cc(F)ccc2O1)[C@@H]1CCc2cc(F)ccc2O1 (racemic) [rac Nebivolol hydrochloride]             2.49
5  N#Cc1c(-c2ccc(Cl)cc2)[nH]c(C(F)(F)F)c1Br [Tralopyril]               11

Give the reported IC50 for CCCCCCOc1cc(C)c(O)c(C)c1C [1-O-Hexyl-2,3,5-trimethylhydroquinone] (system: UniProtKB Q12809). 31.3

Give the reported IC50 for c1ccc(CSCc2ccccc2)cc1 [Benzyl sulfide] (system: UniProtKB Q12809). 47

* * *

TESTED TARGET: hERG (Homo sapiens, UniProt Q12809)
Sequence (Q12809 whole entry): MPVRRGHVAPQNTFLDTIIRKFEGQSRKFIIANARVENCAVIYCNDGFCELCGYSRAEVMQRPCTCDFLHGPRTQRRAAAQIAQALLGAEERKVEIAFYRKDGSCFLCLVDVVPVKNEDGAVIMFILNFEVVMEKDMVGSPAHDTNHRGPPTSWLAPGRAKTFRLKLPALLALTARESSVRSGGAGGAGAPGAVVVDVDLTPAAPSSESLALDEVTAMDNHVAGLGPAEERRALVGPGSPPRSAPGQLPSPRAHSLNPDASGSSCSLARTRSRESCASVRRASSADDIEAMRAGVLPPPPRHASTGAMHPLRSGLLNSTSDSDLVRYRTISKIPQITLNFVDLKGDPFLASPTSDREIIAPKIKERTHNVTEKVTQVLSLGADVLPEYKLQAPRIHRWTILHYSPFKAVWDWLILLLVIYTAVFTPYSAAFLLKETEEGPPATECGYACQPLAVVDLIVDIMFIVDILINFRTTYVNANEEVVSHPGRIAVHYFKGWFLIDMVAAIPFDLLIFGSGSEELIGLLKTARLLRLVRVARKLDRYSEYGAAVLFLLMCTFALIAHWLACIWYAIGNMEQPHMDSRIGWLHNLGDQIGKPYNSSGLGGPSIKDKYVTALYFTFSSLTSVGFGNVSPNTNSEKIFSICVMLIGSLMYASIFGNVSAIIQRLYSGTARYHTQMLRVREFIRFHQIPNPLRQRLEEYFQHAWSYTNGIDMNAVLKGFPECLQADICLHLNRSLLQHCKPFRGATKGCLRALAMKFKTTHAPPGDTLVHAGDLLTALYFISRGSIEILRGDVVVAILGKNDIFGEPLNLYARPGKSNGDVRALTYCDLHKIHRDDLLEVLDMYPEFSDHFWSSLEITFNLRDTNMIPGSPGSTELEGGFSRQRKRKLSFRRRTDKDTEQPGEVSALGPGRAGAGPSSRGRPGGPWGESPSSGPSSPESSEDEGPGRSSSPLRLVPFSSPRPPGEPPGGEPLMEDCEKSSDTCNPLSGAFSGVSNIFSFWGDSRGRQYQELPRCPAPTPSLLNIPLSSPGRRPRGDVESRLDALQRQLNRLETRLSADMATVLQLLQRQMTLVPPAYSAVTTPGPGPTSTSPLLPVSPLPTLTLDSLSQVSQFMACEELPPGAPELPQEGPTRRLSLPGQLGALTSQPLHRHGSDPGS
ASSAY OVERVIEW: cell-based
CONDITION SET: (-LOG10(IC50), µM)
Where a name gives a salt, the structure may show the parent alone.
IC50: recorded values
Just the number in µM, nothing appended.

// worked examples, IC50 included
> print(dat)
                                    compound  result.units  measured.result
 1  CCc1cccc(N(C)C(N)=Nc2cccc3ccccc23)c1 [Aptiganel hydrochloride]            µM             10.3
 2  CN1CCN(Cc2cc(-c3ccc4[nH]c(=O)oc4c3)co2)[C@@H](c2ccc(F)cc2)C1            µM             37.4
 3  O=S(=O)(Oc1ccc(Cl)cc1Cl)c1ccccc1 [2,4-Dichlorophenyl benzenesulfonate]            µM             51.8
 4  O=C(c1ccc(F)cc1)C1CCN(CCn2c(=S)[nH]c3ccccc3c2=O)CC1 [Altanserin hydrochloride]            µM            0.817
 5  CCCCCCCC[P+](CCCCCCCC)(CCCCCCCC)CCCCCCCC.[Br-] [tetraoctylphosphonium bromide]            µM            0.402
 6  Nc1ccc(C(=O)N2CC3CC(CN(Cc4ccccc4)C3)C2)cc1 [Ambasilide]            µM             21.3
 7  O=C(N[C@@H](c1ccccc1)[C@@H]1CCCCN1)c1cccc(C(F)(F)F)c1Cl            µM             50.9
 8  CCC(CN)=C(c1ccccc1)c1ccccc1 [Etifelmine hydrochloride]            µM             20.5
 9  CCCCC/C=C\C/C=C\CCCCCCCC(=O)NC(C)c1ccccc1 (centres unmarked) [Melinamide]            µM             21.3
10  CCCCCCCCCCCCCC[P+](CCCCCC)(CCCCCC)CCCCCC [Trihexyltetradecylphosphonium bromide]            µM             0.44

State the recorded IC50 for this entry: CCCCCCCCCCCCCC[N+](C)(C)C [Tetradonium bromide] 18.3

State the recorded IC50 for this entry: CCCCC(CC)C(=O)OCCOCCOCCOCCOC(=O)C(CC)CCCC (centres unmarked) 11

State the recorded IC50 for this entry: CN1C(CSCC(F)(F)F)Nc2cc(Cl)c(S(N)(=O)=O)cc2S1(=O)=O (centres unmarked) [Polythiazide] 19.7

State the recorded IC50 for this entry: CCN(CC)C(=O)c1cc(S(=O)(=O)Cc2ccccc2)c(N2CCC(c3ccccc3)CC2)cc1N(CC)CCN(C)C [HMR1171 trifluoroacetate (1:1)] 2.72

State the recorded IC50 for this entry: COc1ccc(CCN(C)CCCN2CCc3cc(OC)c(OC)cc3CC2=O)cc1OC [Zatebradine hydrochloride] 10.1

State the recorded IC50 for this entry: CCCN(CCC)c1c([N+](=O)[O-])cc(C(F)(F)F)c(N)c1[N+](=O)[O-] 37.3

State the recorded IC50 for this entry: COc1ccc(CN(CCN(C)C)c2ccccn2)cc1 [Pyrilamine] 27.4

* * *

TESTED TARGET: UniProt Q12809
ASSAY OVERVIEW: cell-based
CONDITION SET: (-LOG10(IC50), µM)
PROPERTY MEASURED: log10 IC50 (log10 of the value in µM)
Give log10 of IC50, with IC50 taken in µM.

// worked examples, log10 IC50 included
> print(dat)
                                   molecule   tested.target  measured.result
1  CCC(Cc1ccccc1)(C(=O)c1ccc(N2CCOCC2)cc1)N(C)C (stereo not drawn)  UniProt Q12809             1.29
2  NC(=O)c1nc(-c2cccc(-c3cc(F)ccc3OCC(F)(F)C(F)(F)F)c2)n[nH]1  UniProt Q12809             1.67
3  c1ccc(C(O[C@@H]2CCCN(CCc3ccc4c(c3)OCO4)C2)c2ccccc2)cc1  UniProt Q12809            -0.08
4  CC(C)C(OC(=O)c1ccccc1)C(C)(C)COC(=O)c1ccccc1 (stereo not drawn)  UniProt Q12809             1.34

State the recorded log10 IC50 for this entry: CCCCCCCC[n+]1ccn(C)c1 1.25

State the recorded log10 IC50 for this entry: CC1=CC(=O)c2ccccc2C1=O 0.86

State the recorded log10 IC50 for this entry: CCC(=O)O[C@H]1CC[C@H]2[C@@H]3CCC4=CC(=O)CC[C@]4(C)[C@H]3CC[C@]12C [Testosterone propionate] 1.41

State the recorded log10 IC50 for this entry: COC(=O)[C@H]1[C@H]2C[C@@H]3c4[nH]c5cc(OC)ccc5c4CCN3C[C@H]2C[C@@H](OC(=O)COc2ccc(OC)cc2)[C@@H]1OC -0.10

State the recorded log10 IC50 for this entry: Clc1ccc(C(c2ccc(Cl)cc2)C(Cl)Cl)cc1 1.41

meta.source: paper PMC8869358
